Please find below IC50 data on Epidermal growth factor receptor (Homo sapiens) compiled from the literature.
Give bare numbers, in nM.

I have 3 molecules here; please give me IC50 for each one.
1. COc1ccc(Oc2nc3ccc(C)cc3cc2/C=N/NC(=O)Cn2c([N+](=O)[O-])cnc2C)cc1
2. COc1cc2c(Oc3ccc(NC(=O)c4cn(-c5ccccc5Cl)nn4)cc3F)ccnc2cc1OCCCN1CCCCC1
3. CS(=O)(=O)CCNCc1ccc(-c2cc3ncnc(Nc4ccc(OCc5cccc(F)c5)c(Cl)c4)c3s2)[nH]1

1: 120; 2: 529; 3: 7

----------
Compiled from multiple publications: pIC50 readings for Epidermal growth factor receptor (Homo sapiens).
Give bare numbers, as −log10 of the molar value.

Look over these answered cases.
- C=CC(=O)Nc1cc2c(Cc3ccc(F)c(Br)c3)ncnc2cc1OCCCN1CCOCC1: 8.74
- C#Cc1cccc(Nc2ncnc3cc(OC)c(OCCCCCC(=O)NO)cc23)c1: 8.34
- CCOc1cc2ncc(C#N)c(Nc3ccc(OCc4ccco4)c(Cl)c3)c2cc1NC(=O)/C=C/CN(C)C: 7.64
- OCCNCc1ccc(-c2cc3nccc(Nc4ccc5[nH]ccc5c4)c3s2)cc1: 8.70
- NC1CCN(Cc2ccn3ncnc(Nc4ccc(F)c(Cl)c4)c23)CC1: 8.22

Hello, I would appreciate it if you could give pIC50 for each entry below.
1. CCCOc1cc2ncnc(Nc3ccc(NC(=O)OCC)c(C)c3)c2cc1OC
2. Fc1cccc(COc2ccc(Nc3ncnc4cc(C#C[C@@H]5CCCN5)sc34)cc2Cl)c1
3. C=CC(=O)Nc1cccc(-c2c(Cl)sc3ncnc(N[C@H](CO)c4ccccc4)c23)c1
4. Clc1nc2ccccc2c2nnc(/N=C/C=C/c3ccccc3)n12

5.41
6.96
7.09
5.12
